Test system: Total rat MAO
RUN DESCRIPTION: Total rat MAO activity (rat liver mitochondrial preparation, colourimetric)
Format: biochemical
CONDITION CONTEXT: rat liver mitochondria; 0.5 mM tyramine; 1 h at 37° C.; read-out: Total MAO inhibitory activity IC50
Parameter: IC50. Scope: all listed entries.
# unit: µM | format: bare number

1) COc1cccc(C(O)CNN)c1 (racemic) | 9.1
2) C[C@@H]([C@H](O)c1ccccc1)N(C)N (racemic) | 36
3) CN(N)CC(O)c1ccc(Cl)cc1 (racemic) | 21
4) CC(C(O)c1ccccc1)N(C)N (racemic) | 16
5) COc1cccc(C(O)CN(C)N)c1 (racemic) | 44

Task: Form field - read-out: IC50; system: Total rat MAO; submitted item: NN(Cc1ccccc1)[C@@H]1CCCC[C@H]1O (racemic)
Result: 106

* * *

TESTED TARGET: Recombinant human VAP-1 SSAO (Homo sapiens)
Sequence (Q16853 whole entry): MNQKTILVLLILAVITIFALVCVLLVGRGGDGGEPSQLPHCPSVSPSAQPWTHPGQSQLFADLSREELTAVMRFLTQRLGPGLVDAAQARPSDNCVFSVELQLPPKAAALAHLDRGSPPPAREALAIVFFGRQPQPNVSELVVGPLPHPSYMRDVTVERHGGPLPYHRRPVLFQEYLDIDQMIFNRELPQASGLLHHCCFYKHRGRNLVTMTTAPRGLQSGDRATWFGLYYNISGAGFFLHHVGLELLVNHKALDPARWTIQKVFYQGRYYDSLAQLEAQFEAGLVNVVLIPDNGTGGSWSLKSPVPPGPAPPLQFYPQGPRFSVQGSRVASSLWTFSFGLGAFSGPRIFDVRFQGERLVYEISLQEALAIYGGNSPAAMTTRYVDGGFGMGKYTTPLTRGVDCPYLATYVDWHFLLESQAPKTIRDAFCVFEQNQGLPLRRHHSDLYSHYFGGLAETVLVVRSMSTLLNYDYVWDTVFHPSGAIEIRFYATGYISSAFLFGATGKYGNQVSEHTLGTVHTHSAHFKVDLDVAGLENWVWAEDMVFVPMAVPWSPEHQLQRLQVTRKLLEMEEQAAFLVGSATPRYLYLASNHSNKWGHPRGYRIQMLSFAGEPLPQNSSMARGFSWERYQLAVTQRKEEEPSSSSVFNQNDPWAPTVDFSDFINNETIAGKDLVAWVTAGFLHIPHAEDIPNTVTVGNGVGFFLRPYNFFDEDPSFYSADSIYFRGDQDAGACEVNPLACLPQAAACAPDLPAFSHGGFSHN
RUN DESCRIPTION: In vitro inhibition of VAP-1 SSAO activity (coupled colourimetric method)
Assay type: biochemical
CONDITION CONTEXT: VAP-1 SSAO inhibitory activity IC50, lysate of CHO cells expressing recombinant human VAP-1 SSAO; 1 mM benzylamine; 1 h at 37° C.
Where a name gives a salt, the structure may show the parent alone.
Label satisfied when IC50 is strictly below 300 nM; at or above that, label not satisfied.

Please review the entries below; each comes with its answer.
1. C[C@@H]([C@H](O)c1ccccc1)N(C)N (racemic) [Compound 12] | satisfied
2. CC(C(O)c1ccccc1)N(C)N (racemic) [Compound 11] | satisfied
3. C[C@@H]([C@H](O)c1ccccc1)N(C)N [Compound 1] | satisfied
4. C[C@@H]([C@H](O)c1ccccc1)N(C)N (relative stereo) [Compound 2, hydrochloride] | not satisfied

// next entry
Task: Determine whether this compound shows IC50 lower than 300 nM (ties excluded): C[C@H](C(O)c1ccccc1)N(C)N (single isomer, unassigned) [Compound 48]
Result: satisfied

* * *

TESTED TARGET: Recombinant human VAP-1 SSAO (Homo sapiens)
RUN DESCRIPTION: In vitro inhibition of VAP-1 SSAO activity (coupled colourimetric method)
Type: biochemical
CONDITION CONTEXT: lysate of CHO cells expressing recombinant human VAP-1 SSAO; 1 mM benzylamine; 1 h at 37° C.; read-out: VAP-1 SSAO inhibitory activity IC50
Experimental: VAP-1 SSAO activity was measured using the coupled colourimetric method essentially as described for monoamine oxidase and related enzymes (Holt, A., et al., Anal. Biochem. 244:384-392 (1997)). […] The plates were incubated for 30 min at 37° C. and the background absorbance measured at 490 nm using a Wallac Victor II multilabel counter. […] The increase in absorbance, reflecting VAP-1 SSAO activity, was measured at 490 nm. […]
pIC50: −log10 of the molar value. Counter-ions that a name gives are not always drawn.
The following compounds are listed with their measured pIC50 values.

Task: Can you look up the measured pIC50 of C[C@H]([C@@H](O)c1ccccc1)[N+](C)(C)N (relative stereo) for me?
Result: < 4.30

Task: Name the recorded pIC50 for NN(Cc1ccccc1)C(CO)Cc1ccccc1 (racemic) .
Result: < 4.30

Task: Name the reported pIC50 value associated with the compound COc1cc2c(cc1OC)C(CO)N(N)CC2 (stereo not shown) [Compound 8, hydrochloride]
Result: < 5.00

Task: Which pIC50 is listed for COc1cc2c(cc1OC)CN(N)C(CO)C2 (racemic) ?
Result: < 5.00
